The measurements presented in this section are drawn from ChEMBL document CHEMBL1201862.

System: SNB-78
protocol description: NCI tumour cell line growth inhibition, 48 h
Active and inactive are the calls of the source. Rule as the data show it: active = GI50 up to about 1.1 µM and inactive = higher.
Outcome (select one): active, inactive

Example cases with answers are listed next.
molecule	cat
CCOC(=O)NC(=O)c1cn(CCCCCCCCCCC(=O)N2CCN(CCn3cc(C(=O)NC(=O)OCC)c(=O)[nH]c3=O)CC2)c(=O)[nH]c1=O	inactive
CN(C)CCNC(=O)c1cccc2nc3ccc4cccnc4c3nc12	active
NC1CCCCC1.O=P(O)(O)C1(P(=O)(O)O)CC1	inactive
Cc1ccccc1-c1cc(=O)c2cc(C)c(C)c(C(=O)O)c2o1	inactive
CCCCCCCCCCC(O)[C@H]1CCC(C2CC[C@H]([C@H](O)CCCCCCCCCCC(O)CC3=CC(C)OC3=O)O2)O1 (stereo not given in full)	inactive

Tell me the assay call for CC(=O)OC1COC(Nc2ccc(C(C)=O)cc2)C(OC(C)=O)C1OC(C)=O (stereo not given) please.
inactive

Tell me the assay call for "N#[N+]c1ccccc1Sc1ccc(Cl)cc1" please.
inactive
